# measurement.target: T1, human CD71 extracellular domain (human, UniProt P02786 89-760)
# T1 construct: also called hCD71; human CD71-ECD
# T1 sequence (P02786 89-760): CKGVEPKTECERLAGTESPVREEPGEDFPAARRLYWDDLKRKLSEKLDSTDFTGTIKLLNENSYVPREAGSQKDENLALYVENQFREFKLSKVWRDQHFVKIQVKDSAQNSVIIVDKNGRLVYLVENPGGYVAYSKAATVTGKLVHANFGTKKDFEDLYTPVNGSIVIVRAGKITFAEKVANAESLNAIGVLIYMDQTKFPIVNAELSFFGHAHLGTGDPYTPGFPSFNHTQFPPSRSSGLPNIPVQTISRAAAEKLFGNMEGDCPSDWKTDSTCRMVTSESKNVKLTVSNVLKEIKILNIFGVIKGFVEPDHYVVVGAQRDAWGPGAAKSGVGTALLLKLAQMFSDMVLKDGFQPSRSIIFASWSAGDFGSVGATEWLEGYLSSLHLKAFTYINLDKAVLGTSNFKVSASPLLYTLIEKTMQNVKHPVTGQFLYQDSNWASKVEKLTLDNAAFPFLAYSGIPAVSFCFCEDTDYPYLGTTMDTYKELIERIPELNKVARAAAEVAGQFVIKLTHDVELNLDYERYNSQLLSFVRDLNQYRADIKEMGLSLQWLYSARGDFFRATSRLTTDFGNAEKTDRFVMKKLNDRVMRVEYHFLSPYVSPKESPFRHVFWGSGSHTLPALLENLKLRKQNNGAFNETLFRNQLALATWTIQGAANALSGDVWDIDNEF
# test.protocol: primary ELISA; also: test concentration or dose not given here
quantity.kind: RLU (RLU)
Answers are plain numbers, in RLU.

binder	RLU, RLU
CD71-binding FN3 domain of SEQ ID NO: 132 (designed binder) MSLPAPKNLVVSRVTEDSARLSWTAPDAAFDSFEIGYFENLYLGEAIVLTVPGSERSYDLTGLKPGTEYWVQIGGVKGVNWSAPLSAIFTT	3.63e+06
CD71-binding FN3 domain of SEQ ID NO: 176 (designed binder) MSLPAPKNLVVSRVTEDSARLSWTAPDAAFDSFFIGYLEPQPPGEAIHLFVPGSERSYDLTGLKPGTEYWVQIGGVKGGNWSAPLSAIFTT	7.01e+06
CD71-binding FN3 domain of SEQ ID NO: 125 (designed binder) MSLPAPKNLVVSRVTEDSARLSWTAPDAAFDSFYIAYAEPRPDGEAIILLVPGSERSYDLTGLKPGTEYSVLIHGVKGGLLSSPLHAHFTT	3.64e+06

Turning now to a further record.
Problem: Item CD71-binding FN3 domain of SEQ ID NO: 182 (designed binder) MSLPAPENLVVSRVTEDSARLSWTAPDAAFDSFEIGYWENAYKGEAIVLTVPGSERSYDLTGLKPGTEYVVFIGGVKGGVWSVPLSVIFTT has what recorded RLU?
Result: 3.81e+06
